- Target or test system: Adenylatcyclase
- Experiment: Adenylatcyclase
Measured log10 of IC50, listed per entry.
Metric: log10 of IC50 (log10 of the value in nM)

Compound: COc1ccc2[nH]cc(SCCNCCCCN3C(=O)C4CC=CCC4C3=O)c2c1 (stereo not shown) [Example 12]
log10 of IC50: 2.38
//
Compound: O=C1CC2(CCCC2)CC(=O)N1CCCCN1CCN(c2ncccn2)CC1 [buspirone, reference compound]
log10 of IC50: 2.10
//
Compound: O=C1c2ccccc2S(=O)(=O)N1CCCCN1CCN(c2ncccn2)CC1 [ipsapirone, reference compound]
log10 of IC50: 2.93
//
Compound: CCCN(CCC)C1CCc2cccc(O)c2C1 (stereo not shown) [Example 8-OH-DPAT, 8-hydroxy-2-(di-n-propylamino)tetralin, reference compound]
log10 of IC50: 1.90
//
Compound: CC1(C)CC(=O)N(CCCCN2CCN(c3ncccn3)CC2)C(=O)C1 [gepirone, reference compound]
log10 of IC50: 3.00
//
Compound: COc1ccc2[nH]cc(SCCNCCCCN3C(=O)C4C5C=CC(C6CC56)C4C3=O)c2c1 (stereo not shown) [Example 10]
log10 of IC50: 1.36
//
Compound: COc1ccc2[nH]cc(OCCNCCCCN3C(=O)CC4(CCCC4)CC3=O)c2c1 [Example 23]
log10 of IC50: 0.26
